System: PC-3
Experimental Details: Antiproliferative activity against human PC3 cells after 3 days by sulforhodamine B assay
Type: functional
Experimental Setup: PC-3, 72 h, read-out: ED50 (the source's name)
Reported pEC50 values follow for various compounds
Remember, pEC50 is on a log scale: it is -log10 of the molar concentration.

* CC[C@]1(O)C[C@H]2CN(CCc3c([nH]c4ccccc34)[C@@](C(=O)OC)(c3cc4c(cc3OC)N(C=O)[C@H]3[C@@](O)(C(=O)OC)[C@H](OC(C)=O)[C@]5(CC)C=CCN6CC[C@]43[C@@H]65)C2)C1 [VINCRISTINE] | 7.92
* CCCCOC1=C(CCC)C(=O)/C(=C(O)/C=C/c2ccccc2)C(=O)C1(CCC)CCC | 5.02
* CCCOC1=C(CCC)C(=O)/C(=C(O)/C=C/c2ccc(I)cc2)C(=O)C1(CCC)CCC | 5.02
* CCCOC1=C(CCC)C(=O)/C(=C(O)/C=C/c2ccccc2)C(=O)C1(CCC)CCC | 5.07
* CCCC1=C(OCC)C(CCC)(CCC)C(=O)/C(=C(O)\C=C\c2ccccc2)C1=O | 4.90
* CCCC1(CC=C(C)C)C(=O)C(C(=O)/C=C/c2ccccc2)=C(O)C(CCC)(CCC)C1=O (stereo not drawn) | 5.08

GET /value?item= CCCCC1=C(OC)C(CCCC)(CCCC)C(=O)/C(=C(O)\C=C\c2ccccc2)C1=O &field=pEC50 returns 4.89

GET /value?item= CC(=O)O[C@H]1C(=O)[C@@]2(C)[C@H]([C@H](OC(=O)c3ccccc3)[C@]3(O)C[C@H](OC(=O)[C@H](O)[C@@H](NC(=O)c4ccccc4)c4ccccc4)C(C)=C1C3(C)C)[C@]1(OC(C)=O)CO[C@@H]1C[C@@H]2O [PACLITAXEL] &field=pEC50 returns 8.05

---

Reported pEC50 values follow for various molecules
Test system: 1A9
Experimental Details: Antiproliferative activity against human 1A9 cells after 3 days by sulforhodamine B assay
Format: functional
Experimental Setup: 1A9, 72 h, read-out: ED50 (the source's name)
Remember, pEC50 is on a log scale: it is -log10 of the molar concentration.

Sample answers from the record:
- CCCOC1=C(CCC)C(=O)/C(=C(O)/C=C/c2ccccc2)C(=O)C1(CCC)CCC: 5.70
- CCCC1=C(OC)C(CCC)(CCC)C(=O)/C(=C(O)\C=C\c2ccc(Br)cc2)C1=O: 5.72
- COC1=C(C)C(O)=C(C(=O)/C=C/c2ccccc2)C(=O)C1(C)C [DESMOSDUMOTIN C]: 4.95

GET /value?item= COC1=C(CCC(C)C)C(=O)/C(=C(O)/C=C/c2ccccc2)C(=O)C1(CCC(C)C)CCC(C)C &field=pEC50 returns 4.79

GET /value?item= CCCCC1=C(OC)C(CCCC)(CCCC)C(=O)/C(=C(O)\C=C\c2ccccc2)C1=O &field=pEC50 returns 5.23

GET /value?item= CCCC1=C(OC)C(CCC)(CCC)C(=O)/C(=C(O)\C=C\c2ccccc2)C1=O &field=pEC50 returns 5.43

GET /value?item= CCCC1=C(OCC)C(CCC)(CCC)C(=O)/C(=C(O)\C=C\c2ccccc2)C1=O &field=pEC50 returns 5.37

GET /value?item= COC1=C(CC(C)C)C(=O)/C(=C(O)/C=C/c2ccccc2)C(=O)C1(CC(C)C)CC(C)C &field=pEC50 returns 5.10

GET /value?item= CCCC1=C(OC)C(CCC)(CCC)C(=O)/C(=C(O)\C=C\c2ccc(I)cc2)C1=O &field=pEC50 returns 5.74

GET /value?item= CC(=O)O[C@H]1C(=O)[C@@]2(C)[C@H]([C@H](OC(=O)c3ccccc3)[C@]3(O)C[C@H](OC(=O)[C@H](O)[C@@H](NC(=O)c4ccccc4)c4ccccc4)C(C)=C1C3(C)C)[C@]1(OC(C)=O)CO[C@@H]1C[C@@H]2O [PACLITAXEL] &field=pEC50 returns 8.68

GET /value?item= CCCC1=C(OCC(C)C)C(CCC)(CCC)C(=O)/C(=C(O)\C=C\c2ccccc2)C1=O &field=pEC50 returns 5.16
